# target or test system: T1, tissue factor (TF) on the surface of TF-positive tumor cells (human, UniProt P13726 33-295)
# T1 construct: whole, on cells; The cell line used is named under assay or readout in each row; also called TF on NCI-H358 cells; TF on KYSE520 cells
# procedure summary: cell ELISA on fixed NCI-H358 cells
EC50 values for the binders below.

binder | EC50 [ng/mL]
27H8H3-hz1 (antibody, human IgG1, kappa, V domains shown, Humanized IgG1 kappa) VH: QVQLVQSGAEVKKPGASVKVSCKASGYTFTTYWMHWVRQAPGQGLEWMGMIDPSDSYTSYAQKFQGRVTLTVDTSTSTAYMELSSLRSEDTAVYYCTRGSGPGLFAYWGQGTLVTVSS VL: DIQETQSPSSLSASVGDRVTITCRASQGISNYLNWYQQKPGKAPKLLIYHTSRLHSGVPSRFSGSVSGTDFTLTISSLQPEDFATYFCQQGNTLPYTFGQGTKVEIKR | 34.8
22F11H5-hz1 (antibody, human IgG1, kappa, V domains shown, Humanized IgG1 kappa) VH: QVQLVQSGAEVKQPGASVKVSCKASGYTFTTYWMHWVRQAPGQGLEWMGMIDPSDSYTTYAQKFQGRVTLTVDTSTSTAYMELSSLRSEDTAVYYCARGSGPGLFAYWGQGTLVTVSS VL: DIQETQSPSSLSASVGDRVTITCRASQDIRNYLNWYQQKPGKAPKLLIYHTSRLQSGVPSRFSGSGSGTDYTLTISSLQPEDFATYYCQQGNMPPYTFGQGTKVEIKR | 12
2B12B10-hz1 (antibody, human IgG1, kappa, V domains shown, Humanized IgG1 kappa) VH: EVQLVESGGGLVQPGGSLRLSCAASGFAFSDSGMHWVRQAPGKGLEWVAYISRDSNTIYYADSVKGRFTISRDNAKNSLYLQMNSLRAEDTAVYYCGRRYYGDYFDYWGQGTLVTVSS VL: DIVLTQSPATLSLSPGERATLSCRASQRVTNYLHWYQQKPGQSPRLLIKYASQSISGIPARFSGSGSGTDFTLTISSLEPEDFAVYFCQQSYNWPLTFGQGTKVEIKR | 3.88
30G11B7-hz1 (antibody, human IgG1, kappa, V domains shown, Humanized IgG1 kappa) VH: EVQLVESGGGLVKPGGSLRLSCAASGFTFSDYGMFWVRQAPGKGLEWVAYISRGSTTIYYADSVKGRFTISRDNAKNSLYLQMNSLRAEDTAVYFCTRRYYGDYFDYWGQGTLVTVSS VL: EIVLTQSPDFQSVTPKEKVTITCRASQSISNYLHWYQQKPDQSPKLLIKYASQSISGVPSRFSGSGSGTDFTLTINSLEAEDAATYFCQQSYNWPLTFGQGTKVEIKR | 4.73

Reference source: patent US20250333541A1
